assay: Dissociation constant, pKa of the compound by capillary electrophoresis; format: physicochemical

{"smiles_notation": "C[C@]1(c2cc(NC(=O)c3ccc(Cl)cn3)ccc2F)N=C(N)OCC1(F)F", "pKa": 6.3}
{"smiles_notation": "C[C@@]1(c2cc(NC(=O)c3ccc(Cl)cn3)ccc2F)CCSC(N)=N1", "pKa": 9}
{"smiles_notation": "N#Cc1ccc(C(=O)Nc2ccc(F)c([C@@]3(CF)N=C(N)OC[C@@H]3F)c2)nc1", "pKa": 6.7}
{"smiles_notation": "C[C@]1(c2cc(NC(=O)c3ccc(Cl)cn3)ccc2F)N=C(N)SCC1(F)F", "pKa": 6.1}

====

target: Beta-secretase 1 (Homo sapiens); assay: Inhibition of human BACE1 using MR121-labeled substrate incubated for 4 mins prior to substrate addition measured after 2 mins by spectrophotometric analysis
# key: entry, value: IC50
value_type: IC50 (nM)

{"smiles_notation": "C[C@]1(c2cc(NC(=O)c3ccc(C#N)cn3)ccc2F)N=C(N)O[C@H](C(F)(F)F)[C@@H]1F", "endpoint_unit": "nM", "result": 13}
{"smiles_notation": "C[C@]1(c2cc(NC(=O)c3ncc(Cl)cn3)ccc2F)N=C(N)OCC1(F)F", "endpoint_unit": "nM", "result": 67}
{"smiles_notation": "C#Cc1ccc(C(=O)Nc2ccc(F)c([C@@]3(C)N=C(N)OCC3(F)F)c2)nc1", "endpoint_unit": "nM", "result": 32}
{"smiles_notation": "C#CCOc1cnc(C(=O)Nc2ccc(F)c([C@@]3(C)N=C(N)OCC3(F)F)c2)cn1", "endpoint_unit": "nM", "result": 13}
{"smiles_notation": "COc1ccc(C(=O)Nc2ccc(F)c([C@@]3(C)N=C(N)OCC3(F)F)c2)nc1", "endpoint_unit": "nM", "result": 51}
{"smiles_notation": "COc1cnc(C(=O)Nc2ccc(F)c([C@@]3(C)N=C(N)OCC3(F)F)c2)cn1", "endpoint_unit": "nM", "result": 27}
{"smiles_notation": "Cn1ccc(C(=O)Nc2ccc(F)c([C@@]3(C)N=C(N)OCC3(F)F)c2)n1", "endpoint_unit": "nM", "result": 446}
{"smiles_notation": "Cc1ccc(C(=O)Nc2ccc(F)c([C@@]3(C)N=C(N)OCC3(F)F)c2)nc1", "endpoint_unit": "nM", "result": 87}
{"smiles_notation": "C[C@]1(c2cc(NC(=O)c3ccc(C#N)cn3)ccc2F)N=C(N)O[C@@H](C(F)(F)F)[C@@H]1F", "endpoint_unit": "nM", "result": 40}
{"smiles_notation": "C[C@]1(c2cc(NC(=O)c3ncc(Cl)cc3Cl)ccc2F)N=C(N)OCC1(F)F", "endpoint_unit": "nM", "result": 26}
{"smiles_notation": "CCOc1ccc(C(=O)Nc2ccc(F)c([C@@]3(C)N=C(N)OCC3(F)F)c2)nc1", "endpoint_unit": "nM", "result": 184}
{"smiles_notation": "C[C@]1(c2cc(NC(=O)c3cnc(OCC(F)(F)F)cn3)ccc2F)N=C(N)OCC1(F)F", "endpoint_unit": "nM", "result": 25}
{"smiles_notation": "C[C@]1(c2cc(NC(=O)c3nn(C(F)F)cc3Cl)ccc2F)N=C(N)OCC1(F)F", "endpoint_unit": "nM", "result": 19}
{"smiles_notation": "C[C@]1(c2cc(NC(=O)c3ccc(OC(F)(F)F)cn3)ccc2F)N=C(N)OCC1(F)F", "endpoint_unit": "nM", "result": 57}
{"smiles_notation": "CC#CCOc1cnc(C(=O)Nc2ccc(F)c([C@@]3(C)N=C(N)OCC3(F)F)c2)cn1", "endpoint_unit": "nM", "result": 6}
{"smiles_notation": "C[C@]1(c2cc(NC(=O)c3ccc(OCC(F)(F)F)cn3)ccc2F)N=C(N)OCC1(F)F", "endpoint_unit": "nM", "result": 108}

====

molecular target: hERG (KCNH2) (Homo sapiens, UniProt Q12809); experiment: Inhibition of human ERG channel at 10 uM
Sequence (Q12809 whole entry): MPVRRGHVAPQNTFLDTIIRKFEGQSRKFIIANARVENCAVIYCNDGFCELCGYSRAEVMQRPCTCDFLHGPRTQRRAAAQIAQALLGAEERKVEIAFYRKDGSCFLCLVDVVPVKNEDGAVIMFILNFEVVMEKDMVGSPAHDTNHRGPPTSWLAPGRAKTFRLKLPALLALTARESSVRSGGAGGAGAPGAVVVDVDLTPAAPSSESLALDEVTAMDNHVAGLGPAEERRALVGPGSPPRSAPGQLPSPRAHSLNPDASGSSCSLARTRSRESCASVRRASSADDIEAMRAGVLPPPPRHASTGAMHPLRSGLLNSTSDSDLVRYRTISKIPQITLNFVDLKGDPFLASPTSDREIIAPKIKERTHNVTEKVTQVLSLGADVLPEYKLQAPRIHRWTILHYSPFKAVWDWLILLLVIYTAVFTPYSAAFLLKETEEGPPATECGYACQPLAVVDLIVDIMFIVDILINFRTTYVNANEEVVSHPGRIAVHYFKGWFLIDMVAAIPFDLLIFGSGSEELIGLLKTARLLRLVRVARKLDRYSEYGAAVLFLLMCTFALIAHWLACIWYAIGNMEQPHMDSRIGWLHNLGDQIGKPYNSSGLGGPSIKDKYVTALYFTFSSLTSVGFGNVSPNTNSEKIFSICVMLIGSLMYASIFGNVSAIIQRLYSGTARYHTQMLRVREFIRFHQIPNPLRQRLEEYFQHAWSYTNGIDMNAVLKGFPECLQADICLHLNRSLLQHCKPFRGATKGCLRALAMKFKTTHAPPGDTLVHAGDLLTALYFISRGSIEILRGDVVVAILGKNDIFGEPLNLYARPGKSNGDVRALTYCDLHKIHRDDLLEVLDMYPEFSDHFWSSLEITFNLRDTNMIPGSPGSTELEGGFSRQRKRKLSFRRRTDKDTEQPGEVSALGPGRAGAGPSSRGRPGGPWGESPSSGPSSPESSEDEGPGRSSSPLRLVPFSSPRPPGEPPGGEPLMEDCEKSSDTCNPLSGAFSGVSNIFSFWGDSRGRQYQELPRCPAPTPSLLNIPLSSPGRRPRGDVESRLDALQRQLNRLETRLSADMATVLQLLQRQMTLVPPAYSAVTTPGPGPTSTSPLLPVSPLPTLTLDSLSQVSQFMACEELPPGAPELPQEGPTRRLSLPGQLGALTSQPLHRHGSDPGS

{"smiles_notation": "N#Cc1ccc(C(=O)Nc2ccc(F)c([C@@]3(CF)N=C(N)OC[C@@H]3F)c2)nc1", "inhibition at 10 µM": "65%"}

====

# key: entry, value: pIC50
Biological target: Beta-secretase 2 (Homo sapiens, UniProt Q9Y5Z0)
Sequence (Q9Y5Z0 whole entry): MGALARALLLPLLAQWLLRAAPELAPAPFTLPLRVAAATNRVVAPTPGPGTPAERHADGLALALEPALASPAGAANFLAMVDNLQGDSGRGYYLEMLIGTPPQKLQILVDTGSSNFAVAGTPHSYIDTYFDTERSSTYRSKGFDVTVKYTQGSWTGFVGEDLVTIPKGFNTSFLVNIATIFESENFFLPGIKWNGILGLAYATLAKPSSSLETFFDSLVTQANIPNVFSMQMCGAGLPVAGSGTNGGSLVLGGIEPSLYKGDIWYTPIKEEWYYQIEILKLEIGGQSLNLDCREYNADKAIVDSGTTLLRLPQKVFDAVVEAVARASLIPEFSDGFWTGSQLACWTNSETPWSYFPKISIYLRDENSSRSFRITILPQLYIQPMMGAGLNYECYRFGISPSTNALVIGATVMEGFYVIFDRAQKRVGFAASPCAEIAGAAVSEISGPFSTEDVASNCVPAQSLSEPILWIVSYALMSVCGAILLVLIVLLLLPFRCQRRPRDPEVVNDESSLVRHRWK
pIC50: −log10 of the molar value.
value_type: pIC50

{"smiles_notation": "C[C@]1(c2cc(NC(=O)c3ncc(Cl)cn3)ccc2F)N=C(N)OCC1(F)F", "result": 7.64}
{"smiles_notation": "C[C@]1(c2cc(NC(=O)c3ncc(Cl)cc3Cl)ccc2F)N=C(N)OCC1(F)F", "result": 7.92}
{"smiles_notation": "C[C@]1(c2cc(NC(=O)c3nn(C(F)F)cc3Cl)ccc2F)N=C(N)OCC1(F)F", "result": 7.96}
{"smiles_notation": "COc1ccc(C(=O)Nc2ccc(F)c([C@@]3(C)N=C(N)OCC3(F)F)c2)nc1", "result": 7.35}
{"smiles_notation": "C#Cc1ccc(C(=O)Nc2ccc(F)c([C@@]3(C)N=C(N)OCC3(F)F)c2)nc1", "result": 7.33}
{"smiles_notation": "C[C@]1(c2cc(NC(=O)c3ccc(Cl)cn3)ccc2F)N=C(N)SCC1(F)F", "result": 8.00}
{"smiles_notation": "Cn1ccc(C(=O)Nc2ccc(F)c([C@@]3(C)N=C(N)OCC3(F)F)c2)n1", "result": 6.97}
{"smiles_notation": "COc1cnc(C(=O)Nc2ccc(F)c([C@@]3(C)N=C(N)OCC3(F)F)c2)cn1", "result": 6.92}
{"smiles_notation": "C[C@]1(c2cc(NC(=O)c3ccc(C#N)cn3)ccc2F)N=C(N)OCC1(F)F", "result": 7.62}

====

# key: entry, value: pIC50
target: Beta-secretase 1 (Homo sapiens, UniProt P56817); assay: Inhibition of human BACE1 in HEK293 cells transfected with wild type APP assessed as reduction of amyloid beta40 level after 18 to 20 hrs by AlphaLISA technique; format: cell-based
Sequence (P56817 whole entry): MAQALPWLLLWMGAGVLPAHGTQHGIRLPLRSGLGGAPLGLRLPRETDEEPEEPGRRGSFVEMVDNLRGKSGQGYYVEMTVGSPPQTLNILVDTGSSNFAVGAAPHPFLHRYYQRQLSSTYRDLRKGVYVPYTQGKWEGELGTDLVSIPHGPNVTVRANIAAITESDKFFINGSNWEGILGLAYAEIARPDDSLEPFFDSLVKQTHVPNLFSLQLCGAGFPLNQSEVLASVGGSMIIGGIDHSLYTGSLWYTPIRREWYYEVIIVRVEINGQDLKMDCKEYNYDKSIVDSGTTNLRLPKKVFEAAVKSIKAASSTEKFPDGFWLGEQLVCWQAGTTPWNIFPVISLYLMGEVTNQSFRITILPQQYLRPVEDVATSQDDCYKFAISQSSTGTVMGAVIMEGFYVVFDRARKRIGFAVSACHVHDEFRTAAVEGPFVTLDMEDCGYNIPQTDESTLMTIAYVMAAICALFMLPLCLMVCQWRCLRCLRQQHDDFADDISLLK
pIC50: −log10 of the molar value.

{"smiles_notation": "C[C@]1(c2cc(NC(=O)c3ncc(Cl)cc3Cl)ccc2F)N=C(N)OCC1(F)F", "pIC50": 7.89}
{"smiles_notation": "COc1ccc(C(=O)Nc2ccc(F)c([C@@]3(C)N=C(N)OCC3(F)F)c2)nc1", "pIC50": 7.21}
{"smiles_notation": "COc1cnc(C(=O)Nc2ccc(F)c([C@@]3(C)N=C(N)OCC3(F)F)c2)cn1", "pIC50": 7.66}
{"smiles_notation": "C[C@]1(c2cc(NC(=O)c3cnc(OCC(F)(F)F)cn3)ccc2F)N=C(N)OCC1(F)F", "pIC50": 6.96}
{"smiles_notation": "C#CCOc1cnc(C(=O)Nc2ccc(F)c([C@@]3(C)N=C(N)OCC3(F)F)c2)cn1", "pIC50": 9.00}
{"smiles_notation": "CCOc1ccc(C(=O)Nc2ccc(F)c([C@@]3(C)N=C(N)OCC3(F)F)c2)nc1", "pIC50": 6.32}
{"smiles_notation": "C[C@]1(c2cc(NC(=O)c3ccc(OC(F)(F)F)cn3)ccc2F)N=C(N)OCC1(F)F", "pIC50": 7.27}
{"smiles_notation": "C#Cc1ccc(C(=O)Nc2ccc(F)c([C@@]3(C)N=C(N)OCC3(F)F)c2)nc1", "pIC50": 7.62}
{"smiles_notation": "CC#CCOc1cnc(C(=O)Nc2ccc(F)c([C@@]3(C)N=C(N)OCC3(F)F)c2)cn1", "pIC50": 9.00}
{"smiles_notation": "C[C@]1(c2cc(NC(=O)c3nn(C(F)F)cc3Cl)ccc2F)N=C(N)OCC1(F)F", "pIC50": 7.89}
{"smiles_notation": "Cc1ccc(C(=O)Nc2ccc(F)c([C@@]3(C)N=C(N)OCC3(F)F)c2)nc1", "pIC50": 7.06}
